From: patent US9676757B2

Target: Nav1.6 (Homo sapiens)
Experiment: Nav two-pulse protocol, IonWorks Quattro electrophysiology
Assay type: cell-based
Details: -120 mV to 0 mV, compound incubated 300 s, read-out: Nav1.6 inac
pIC50: −log10 of the molar value.
OBSERVED_PROPERTY: pIC50

Would you please look over these solved cases?
INSERT INTO assay_data (molecule, target_system, measured_result) VALUES
  ('CC(C)COc1cccc(CN2CCC(c3nnc(CO)o3)C2)c1 (stereo not drawn)', 'Nav1.6 (Homo sapiens)', '5.30 to 6.00'),
  ('O=C(NCc1ccccn1)C1CCN(Cc2cccc(Oc3ccccn3)c2)C1 (stereo not drawn)', 'Nav1.6 (Homo sapiens)', '> 6.00'),
  ('O=C(C1CN(Cc2cccc(Oc3ccccc3)c2)CCO1)N1CCOCC1 (stereo not drawn)', 'Nav1.6 (Homo sapiens)', '< 5.30'),
  ('Cc1cnc(CNC(=O)C2CCN(Cc3cccc(OCC(F)(F)F)c3)C2)cn1 (stereo not drawn)', 'Nav1.6 (Homo sapiens)', '5.30 to 6.00'),
  ('COc1cccc(-c2cn(C3CCN(Cc4cccc(OCC(C)C)c4)C3)nn2)n1 (stereo not drawn)', 'Nav1.6 (Homo sapiens)', '5.30 to 6.00'),
  ('CC1(C(=O)NCc2ccccn2)CCN(Cc2coc(-c3ccccc3)n2)C1 (stereo not drawn)', 'Nav1.6 (Homo sapiens)', '5.30 to 6.00'),
  ('COc1ccc(Oc2cccc(CN3CCC(C(=O)NCc4ccccn4)C3)n2)cc1 (stereo not drawn)', 'Nav1.6 (Homo sapiens)', '5.30 to 6.00'),
  ('C[C@]1(C(=O)NCc2ccccn2)CCN(Cc2cccc(Oc3ccccc3)c2)C1', 'Nav1.6 (Homo sapiens)', '< 5.30');

Report pIC50 under test system Nav1.6 (Homo sapiens) for COc1ccc(-c2nc(C3CCN(Cc4cccc(OCC(C)C)c4)C3)no2)nc1 (stereo not drawn) .
5.30 to 6.00

Report pIC50 under test system Nav1.6 (Homo sapiens) for Cc1ccc(-c2nc(C3CCN(Cc4cccc(OCC(C)C)c4)C3)no2)nc1 (stereo not drawn) .
5.30 to 6.00

Report pIC50 under test system Nav1.6 (Homo sapiens) for CC(C)COc1cccc(CN2CCC(c3noc(-c4ncccc4F)n3)C2)c1 (stereo not drawn) .
< 5.30

Report pIC50 under test system Nav1.6 (Homo sapiens) for COc1ccnc(-c2nc(C3CCN(Cc4cccc(OCC(C)C)c4)C3)no2)c1 (stereo not drawn) .
5.30 to 6.00

Report pIC50 under test system Nav1.6 (Homo sapiens) for Cc1cccc(Oc2cccc(CN3CCC(C)(C(=O)NCc4ccccn4)C3)c2)c1 (stereo not drawn) .
< 5.30

Report pIC50 under test system Nav1.6 (Homo sapiens) for O=C(NCc1cccc(C(F)(F)F)c1)C1CCN(Cc2cccc(Oc3ccccc3)c2)C1 (stereo not drawn) .
5.30 to 6.00

Report pIC50 under test system Nav1.6 (Homo sapiens) for CC(C)(C)c1ccc(CNC(=O)C2CCN(Cc3cccc(Oc4ccccc4)c3)C2)cc1 (stereo not drawn) .
> 6.00

Report pIC50 under test system Nav1.6 (Homo sapiens) for CC(C)CS(=O)(=O)c1cccc(CN2CCC(C(=O)OCc3ccccn3)C2)c1 (stereo not drawn) .
5.30 to 6.00

Report pIC50 under test system Nav1.6 (Homo sapiens) for O=C(NCc1ccccn1)C1(O)CCN(Cc2cccc(Oc3ccccc3)c2)C1 (stereo not drawn) .
5.30 to 6.00

Report pIC50 under test system Nav1.6 (Homo sapiens) for CC1(C(=O)NCc2ccccn2)CCN(Cc2cnc(-c3ccccc3)s2)C1 (stereo not drawn) .
5.30 to 6.00

Report pIC50 under test system Nav1.6 (Homo sapiens) for CC1(C(=O)N2CCNCC2)CCN(Cc2cccc(Oc3ccccc3)c2)C1 (stereo not drawn) .
5.30 to 6.00

Report pIC50 under test system Nav1.6 (Homo sapiens) for CCNC(=O)C1(C)CCN(Cc2cccc(OC(F)(F)F)c2)C1 (stereo not drawn) .
> 6.00

Report pIC50 under test system Nav1.6 (Homo sapiens) for Cc1cccnc1-c1nc(C2CCN(Cc3cccc(OCC(C)C)c3)C2)no1 (stereo not drawn) .
5.30 to 6.00

Report pIC50 under test system Nav1.6 (Homo sapiens) for O=C(NCc1cc(F)ccc1F)C1CCN(Cc2cccc(Oc3ccccc3)c2)C1 (stereo not drawn) .
> 6.00

Report pIC50 under test system Nav1.6 (Homo sapiens) for CC(C)COc1cccc(CN2CCC(Cn3ccnc3)C2)c1 (stereo not drawn) .
> 6.00

---

Molecular target: Nav1.6 (Homo sapiens)
Experiment: Nav two-pulse protocol, IonWorks Quattro electrophysiology
Type: cell-based
Conditions: -120 mV to 0 mV, compound incubated 300 s, read-out: Nav1.6 inac
OBSERVED_PROPERTY: IC50

Specify measured IC50 for O=C(NCc1ccccn1)C1CCN(Cc2ccc3c(c2)OC(F)(F)O3)C1 (stereo not drawn) .
1 to 5 µM

Specify measured IC50 for Cc1ccc(CNC(=O)C2CCN(Cc3cccc(OCC(F)(F)F)c3)C2)nc1 (stereo not drawn) .
> 5 µM

Specify measured IC50 for CC(C)C[S+]([O-])c1cccc(CN2CCC(C(=O)NCc3ccccn3)C2)c1 (stereo not drawn) .
> 5 µM

Specify measured IC50 for O=C(NCc1ccc(F)cc1F)C1CCN(Cc2cccc(Oc3ccccc3)c2)C1 (stereo not drawn) .
1 to 5 µM

Specify measured IC50 for O=C(NCc1ccc(F)c(F)c1)C1CCN(Cc2cccc(Oc3ccccc3)c2)C1 (stereo not drawn) .
< 1 µM

Specify measured IC50 for "C[C@@]1(C(=O)NCc2ccccn2)CCN(Cc2cccc(Oc3ccccc3)c2)C1" .
1 to 5 µM

Specify measured IC50 for CC(C)c1ccc(Oc2cccc(CN3CCC(F)(C(=O)NCc4ccccn4)C3)c2)cc1 (stereo not drawn) .
1 to 5 µM

Specify measured IC50 for O=C(NCc1cccc(Cl)c1)C1CCN(Cc2cccc(Oc3ccccc3)c2)C1 (stereo not drawn) .
< 1 µM

Specify measured IC50 for CC(C)COc1cccc(CN2CCC(c3noc(-c4cc(Br)ccn4)n3)C2)c1 (stereo not drawn) .
> 5 µM

---

Biological target: Nav1.6 (Homo sapiens, UniProt Q9UQD0)
Sequence (Q9UQD0 whole entry): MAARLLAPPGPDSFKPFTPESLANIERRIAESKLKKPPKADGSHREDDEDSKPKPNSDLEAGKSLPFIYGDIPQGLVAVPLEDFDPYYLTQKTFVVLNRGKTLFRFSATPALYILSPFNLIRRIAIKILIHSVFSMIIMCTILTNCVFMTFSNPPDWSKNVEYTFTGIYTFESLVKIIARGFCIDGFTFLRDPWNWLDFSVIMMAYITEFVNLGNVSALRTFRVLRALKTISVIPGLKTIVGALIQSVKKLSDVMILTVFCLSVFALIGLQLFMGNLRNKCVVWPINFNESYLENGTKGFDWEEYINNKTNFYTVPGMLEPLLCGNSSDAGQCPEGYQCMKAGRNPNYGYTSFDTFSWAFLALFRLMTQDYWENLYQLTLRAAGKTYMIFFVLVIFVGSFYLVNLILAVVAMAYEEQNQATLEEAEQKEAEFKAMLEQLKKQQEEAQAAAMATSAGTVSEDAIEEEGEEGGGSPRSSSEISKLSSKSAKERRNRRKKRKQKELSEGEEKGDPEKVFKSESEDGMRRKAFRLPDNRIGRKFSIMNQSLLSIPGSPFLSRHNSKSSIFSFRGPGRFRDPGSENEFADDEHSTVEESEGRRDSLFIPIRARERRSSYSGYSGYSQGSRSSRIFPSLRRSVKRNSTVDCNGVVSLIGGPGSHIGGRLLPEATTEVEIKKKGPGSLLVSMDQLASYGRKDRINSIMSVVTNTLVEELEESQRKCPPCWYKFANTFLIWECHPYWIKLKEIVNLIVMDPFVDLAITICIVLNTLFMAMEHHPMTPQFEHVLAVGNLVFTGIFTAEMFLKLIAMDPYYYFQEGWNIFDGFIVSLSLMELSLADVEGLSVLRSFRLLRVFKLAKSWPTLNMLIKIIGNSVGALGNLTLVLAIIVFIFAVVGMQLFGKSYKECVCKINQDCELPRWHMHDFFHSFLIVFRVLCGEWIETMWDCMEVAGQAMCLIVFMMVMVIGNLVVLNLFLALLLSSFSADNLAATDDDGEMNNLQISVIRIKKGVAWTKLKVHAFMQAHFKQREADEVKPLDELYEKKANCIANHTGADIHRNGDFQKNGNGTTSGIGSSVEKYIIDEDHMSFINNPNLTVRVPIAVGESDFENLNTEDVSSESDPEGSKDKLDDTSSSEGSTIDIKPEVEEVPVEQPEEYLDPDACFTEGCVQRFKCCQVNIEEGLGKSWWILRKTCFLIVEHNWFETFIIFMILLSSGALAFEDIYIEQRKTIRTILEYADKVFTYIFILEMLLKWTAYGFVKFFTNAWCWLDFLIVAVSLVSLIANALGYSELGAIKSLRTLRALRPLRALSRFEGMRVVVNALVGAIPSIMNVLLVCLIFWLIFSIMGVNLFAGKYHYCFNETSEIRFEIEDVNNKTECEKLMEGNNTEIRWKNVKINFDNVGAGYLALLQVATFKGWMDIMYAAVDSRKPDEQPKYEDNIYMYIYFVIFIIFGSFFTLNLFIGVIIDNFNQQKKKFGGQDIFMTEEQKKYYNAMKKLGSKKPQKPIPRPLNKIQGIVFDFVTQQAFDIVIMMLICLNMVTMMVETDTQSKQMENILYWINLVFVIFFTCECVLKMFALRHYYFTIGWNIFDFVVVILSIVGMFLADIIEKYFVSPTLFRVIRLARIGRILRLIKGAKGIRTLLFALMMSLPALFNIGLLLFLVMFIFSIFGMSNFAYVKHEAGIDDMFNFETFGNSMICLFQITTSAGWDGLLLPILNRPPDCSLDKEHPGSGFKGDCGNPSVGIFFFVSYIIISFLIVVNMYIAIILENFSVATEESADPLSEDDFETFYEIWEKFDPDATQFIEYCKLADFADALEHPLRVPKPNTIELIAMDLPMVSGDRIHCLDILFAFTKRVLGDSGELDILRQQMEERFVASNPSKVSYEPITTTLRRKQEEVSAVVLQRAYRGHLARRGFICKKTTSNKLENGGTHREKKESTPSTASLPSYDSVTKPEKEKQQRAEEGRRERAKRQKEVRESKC
Assay: Nav two-pulse protocol, IonWorks Quattro electrophysiology
Assay type: cell-based
Conditions: -120 mV to 0 mV, compound incubated 300 s, read-out: Nav1.6 Tonic
pIC50: −log10 of the molar value.
Some compounds, each annotated with its measured pIC50.

Would you please look over these solved cases?
INSERT INTO assay_data (compound, observed_property, measured_result) VALUES
  ('O=C(NCc1nc(-c2ccccc2)cs1)C1CCN(Cc2cccc(Oc3ccccc3)c2)C1 (stereo not drawn) [Compound 85]', 'pIC50', '< 4.70'),
  ('CCNC(=O)C1(C)CCN(C(=O)c2cccc(Oc3ccccc3)c2)C1 (stereo not drawn) [Compound 40]', 'pIC50', '4.70 to 5.00');

Now consider a different compound.
Specify measured pIC50 for CC(C)c1ccc(Oc2cccc(CN3CCC(F)(C(=O)NCc4ccccn4)C3)c2)cc1 (stereo not drawn) [Compound 26] .
< 4.70

---

Biological target: Nav1.6 (Homo sapiens)
Test: Nav two-pulse protocol, IonWorks Quattro electrophysiology
Format: cell-based
Conditions: -120 mV to 0 mV, compound incubated 300 s, read-out: Nav1.6 inac
pIC50: −log10 of the molar value. Structures can show the parent of a compound that is named as a salt.
Some molecules, each annotated with its measured pIC50.

Would you please look over these solved cases?
INSERT INTO results (molecule, observed_property, measured_result) VALUES
  ('O=C(NCc1ncccc1F)C1CCN(Cc2cccc(OCC(F)(F)F)c2)C1 (centres unmarked)', 'pIC50', '< 5.30'),
  ('O=C(NCc1ccc(OC(F)F)cc1)C1CCN(Cc2cccc(Oc3ccccc3)c2)C1 (centres unmarked)', 'pIC50', '< 5.30'),
  ('O=C(NCc1ccccn1)C1CCN(Cc2cccc(Oc3cccc(F)c3)c2)C1 (centres unmarked)', 'pIC50', '> 6.00'),
  ('Cc1cc(C)nc(CNC(=O)C2CCN(Cc3cccc(S(=O)(=O)N4CCCC4)c3)C2)c1 (centres unmarked) [Compound 111, hydrochloride]', 'pIC50', '5.30 to 6.00'),
  ('CC1(C(=O)N2Cc3ccncc3C2)CCN(Cc2cccc(Oc3ccccc3)c2)C1 (centres unmarked)', 'pIC50', '5.30 to 6.00'),
  ('O=C(NCc1cccc(C(F)(F)F)n1)C1CCN(Cc2cccc(OCC(F)(F)F)c2)C1 (centres unmarked)', 'pIC50', '5.30 to 6.00'),
  ('Cn1ccnc1CNC(=O)C1(C)CCN(Cc2cccc(Oc3ccccc3)c2)C1 (centres unmarked)', 'pIC50', '5.30 to 6.00'),
  ('O=C(NCc1cccc(F)c1)C1CCN(Cc2cccc(Oc3ccccc3)c2)C1 (centres unmarked)', 'pIC50', '5.30 to 6.00'),
  ('COCCNC(=O)C1CN(Cc2cccc(Oc3ccccc3)c2)CCO1 (centres unmarked)', 'pIC50', '5.30 to 6.00'),
  ('CC1(C)Cc2cc(CN3CCC(C(=O)NCc4ccccn4)C3)ccc2O1 (centres unmarked)', 'pIC50', '5.30 to 6.00');

Now consider a different molecule.
Specify measured pIC50 for Cc1ccc(Oc2cccc(CN3CCC(F)(C(=O)NCc4ccccn4)C3)c2)cc1 (centres unmarked) .
5.30 to 6.00
